Tested on: BT-474 Tam2
run-description: viability inhibition at highest dose (% inhibition); higher = more growth inhibition
conditions: 4-OH-tamoxifen in medium 1 µM; 72 h
Please provide measured viability inhibition at highest dose for the entries that follow.

Challenge: Dear colleague, I am looking for the recorded viability inhibition at highest dose of the following compound: COc1cc(Nc2c(C#N)cnc3cc(OCCCN4CCN(C)CC4)c(OC)cc23)c(Cl)cc1Cl [Bosutinib] (drug 10000 nM)
Response given: 95

Challenge: viability inhibition at highest dose for N.N.[Cl][Pt][Cl] [Cisplatin] (drug 10000 nM) ?
Response given: 2.59

Challenge: Sample COc1cc(CCc2cc(NC(=O)c3ccc(N4CC(C)NC(C)C4)cc3)n[nH]2)cc(OC)c1 (stereo unspecified) [AZD4547] (drug 1000 nM) — what was its viability inhibition at highest dose?
Response given: -5.95

Challenge: I have this compound here, CCNC(=O)CCC/C=C\C[C@@H]1[C@@H](/C=C/[C@@H](O)CCc2ccccc2)[C@H](O)C[C@@H]1O [Bimatoprost] (drug 5500 nM) , and I need its recorded viability inhibition at highest dose.
Response given: -16.2

Challenge: Any idea what its viability inhibition at highest dose is? The compound is Cc1c(C(=O)Nc2ccc(N3C[C@@H](C)O[C@@H](C)C3)nc2)cccc1-c1ccc(OC(F)(F)F)cc1 [Erismodegib (NVP-LDE225)] (drug 10000 nM)
Response given: 19

Challenge: Please look up its viability inhibition at highest dose: Clc1ccc(C(c2ccccc2Cl)C(Cl)Cl)cc1 (stereo unspecified) [Mitotane] (drug 10000 nM)
Response given: 3.56
